B1: tRNA (parent)
chain: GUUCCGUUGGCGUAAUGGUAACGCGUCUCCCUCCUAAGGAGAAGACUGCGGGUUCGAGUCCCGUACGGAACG

# Variants of: B1
# assay: yeast fitness relative to wild type (ratio to wild type); higher = fitter; tRNA-Arg(CCU), competitive growth, 37 C, YPD
Variants at the floor of the assay were thinned out.
Threshold check on yeast fitness: at or above 0.6 gives label 1, strictly below gives label 0.

Completed entries (count: 6):
[
  {
    "mutation_string": "A15C G17C G50A A69U",
    "label": "label 0"
  },
  {
    "mutation_string": "C29U C31A C46U",
    "label": "label 0"
  },
  {
    "mutation_string": "U7C C27A",
    "label": "label 1"
  },
  {
    "mutation_string": "G12A C30U U47A G67C",
    "label": "label 0"
  },
  {
    "mutation_string": "A37G G39A A45C",
    "label": "label 1"
  },
  {
    "mutation_string": "U3C C5U C24U A42C A57U",
    "label": "label 0"
  }
]

Please look at the following variant next.
Could you tell me if the measured yeast fitness of U3A G6C G17A A37U G58A reaches 0.6 or more? label 0
